Target: CYP-2C9 (Homo sapiens, UniProt P11712)
Sequence (P11712 whole entry): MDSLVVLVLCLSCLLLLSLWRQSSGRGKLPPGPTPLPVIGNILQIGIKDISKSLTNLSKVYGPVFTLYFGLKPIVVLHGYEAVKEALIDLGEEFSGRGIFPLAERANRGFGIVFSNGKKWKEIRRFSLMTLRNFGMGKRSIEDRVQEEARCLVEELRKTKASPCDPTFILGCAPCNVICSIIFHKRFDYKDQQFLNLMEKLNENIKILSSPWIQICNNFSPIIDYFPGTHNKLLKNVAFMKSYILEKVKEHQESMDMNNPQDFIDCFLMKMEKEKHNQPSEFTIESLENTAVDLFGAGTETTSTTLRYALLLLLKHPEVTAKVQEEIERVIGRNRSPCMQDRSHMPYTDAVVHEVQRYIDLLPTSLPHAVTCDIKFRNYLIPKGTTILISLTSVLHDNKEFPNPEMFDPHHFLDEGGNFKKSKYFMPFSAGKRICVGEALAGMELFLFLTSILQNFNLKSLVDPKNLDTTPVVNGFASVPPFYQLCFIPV
Assay: CYP inhibition, 2C9
Type: in vitro ADME
Details: most potently inhibited isoform was CYP-2C9
reported endpoint: IC50

Exercise: What value of measured IC50 is listed for Cc1ccc(-c2ncc3c(n2)N2CCOC[C@@]2(C)C(=O)N3[C@H]2CC[C@H](O)CC2)c2cc[nH]c12 [15a] ?
Key: 5 µM

====

Consider the following compounds and their measured bioavailability readings.
Test: Rat PK (iv and po)
Assay type: in vivo
Conditions: in vivo, 4 mg/kg, iv 1 mpk, po 4 mpk in 0.5% methylcellulose
Could you give me the number in %? Just the number is fine.

Exercise: What value of measured bioavailability is listed for C[C@@]12COCCN1c1nc(-c3cccc4[nH]ccc34)ncc1N([C@H]1CC[C@H](O)CC1)C2=O [14c] ?
Key: 94

Exercise: What value of measured bioavailability is listed for CC(F)(F)CN1C(=O)[C@]2(C)COCCN2c2nc(-c3ccc(NC(=O)NC4CC4)cc3)ncc21 [compound 1] ?
Key: 20

Exercise: What value of measured bioavailability is listed for C[C@@]12COCCN1c1nc(-c3cccc4[nH]ccc34)ncc1N(C1CCOCC1)C2=O [4e] ?
Key: 91

Exercise: What value of measured bioavailability is listed for C[C@@]12COCCN1c1nc(-c3cccc4[nH]ccc34)ncc1N([C@H]1CC[C@@H](O)CC1)C2=O [14b] ?
Key: 100

Exercise: What value of measured bioavailability is listed for Cc1ccc(-c2ncc3c(n2)N2CCOC[C@@]2(C)C(=O)N3[C@H]2CC[C@H](O)CC2)c2cc[nH]c12 [15a] ?
Key: 35
